The values you see were collected from patent US20100179153A1.

Biological target: human S1P4 receptor (Homo sapiens)
Construct: RH7777 may also be used
Sequence (O95977 1-384): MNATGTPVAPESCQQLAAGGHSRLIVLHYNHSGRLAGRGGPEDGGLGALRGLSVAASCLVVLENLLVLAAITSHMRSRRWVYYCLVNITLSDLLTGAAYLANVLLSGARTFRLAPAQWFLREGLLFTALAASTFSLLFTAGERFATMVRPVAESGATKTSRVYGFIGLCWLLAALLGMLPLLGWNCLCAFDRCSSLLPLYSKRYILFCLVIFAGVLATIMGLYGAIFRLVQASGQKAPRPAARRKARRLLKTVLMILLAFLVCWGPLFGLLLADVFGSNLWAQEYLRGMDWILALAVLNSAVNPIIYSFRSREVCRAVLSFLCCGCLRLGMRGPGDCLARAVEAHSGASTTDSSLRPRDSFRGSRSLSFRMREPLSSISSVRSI
Assay: 35S-GTPγS binding assay (SPA), S1P4
Details: membrane protein from transfected CHO cells, read-out: EC50 for receptor subtype S1P4
assay-metric: EC50 (nM)

[[record]]
compound_string = "Cc1cc(F)cc(C)c1Nc1cccc2c(C)n[nH]c(=O)c12"
target_of_assay = "human S1P4 receptor (Homo sapiens)"
assay_metric = "EC50"
readout_unit = "nM"
value_measured = 929

